# System: AhR
# PROCEDURE SUMMARY: Aggregate nuclear receptor activity: AhR
# TEST PARAMETERS: aggregate human NR activity, in words
# Description: […] The aggregate NR activity [drawing 86] , where [drawing 87] , was calculated using assays [drawing 88] . The aggregate scaled NR activity score for each chemical [drawing 89] was calculated as the average concentration value across the assays, scaled by the maximum value across all chemicals using Equation 1. […]
METRIC: activity with AhR

1. C#CC(C)(C)NC(=O)c1cc(Cl)cc(Cl)c1 [Propyzamide]; active
2. CCOC(=O)CC(SP(=S)(OC)OC)C(=O)OCC (stereo not drawn) [Malathion]; some activity
3. C=CC1(C)OC(=O)N(c2cc(Cl)cc(Cl)c2)C1=O (stereo not drawn) [Vinclozolin]; some activity
4. Cl[C@H]1[C@H](Cl)[C@@H](Cl)[C@@H](Cl)[C@H](Cl)[C@H]1Cl [Lindane]; active

Would you be so kind as to report activity with AhR for each listed record?
1. COC(=O)C(C)Oc1ccc(Oc2ccc(Cl)cc2Cl)cc1 (stereo not drawn) [Diclofop-methyl]
2. CCOC(=O)C(C)OC(=O)c1cc(Oc2ccc(C(F)(F)F)cc2Cl)ccc1[N+](=O)[O-] (stereo not drawn) [Lactofen]
3. CC(C)Oc1cc(-n2nc(C(C)(C)C)oc2=O)c(Cl)cc1Cl [Oxadiazon]

*A*
1. some activity
2. consistently active
3. consistently active

// each molecule listed below needs its activity with AhR
1. CC1(C)C(C=C(Cl)Cl)C1C(=O)OCc1cccc(Oc2ccccc2)c1 (stereo not drawn) [Permethrin]
2. C=CCOC(Cn1ccnc1)c1ccc(Cl)cc1Cl (stereo not drawn) [Imazalil]

*A*
1: active; 2: some activity
